- protocol: qHTS assay to identify small molecule HDAC inhibitors - cell viability counter screen (AID 1259365); further: nearly all actives have a fitted effect of over 50% in size
- measurement.context: HCT-116 viability, CellTiter-Glo ATP luminescence, 2 h; series mostly up to 92.4 µM
Activity calls are given as the source filed them. The call rests on the fitted dose curve; in most records, active means well fitted cell-killing curve with a large enough effect in the repeat runs; inconclusive means weak or mixed curves, or effect the other way; inactive means flat fitted curve, though single readings scatter.

compound: CC(=O)c1sc(C)nc1C
activity change, negative = cytotoxicity: inactive
//
compound: CC(=O)CCCCn1c(=O)c2c(ncn2C)n(C)c1=O
activity change, negative = cytotoxicity: inactive
//
compound: O=C1c2ccccc2C(=O)N1CCl
activity change, negative = cytotoxicity: inactive
//
compound: COc1ccc2c(c1)C(=O)N(CCc1ccc(S(=O)(=O)NC(=O)NC3CCCCC3)cc1)C(=O)C2(C)C
activity change, negative = cytotoxicity: inactive
//
compound: CCCOC(OCCC)OCCC
activity change, negative = cytotoxicity: inactive
//
compound: ClCCCl
activity change, negative = cytotoxicity: inactive
//
compound: Cc1cccc(OCC(O)CNC(C)(C)C)c1C (centres undefined)
activity change, negative = cytotoxicity: inactive
//
compound: CCOC(=O)c1ccc(OC(=O)CCCCCN=C(N)N)cc1
activity change, negative = cytotoxicity: inactive
//
compound: Nc1ccc2cc(S(=O)(=O)O)cc(O)c2c1
activity change, negative = cytotoxicity: inactive
//
compound: O=C(NCCc1c[nH]c2ccccc12)c1cccnc1
activity change, negative = cytotoxicity: inactive
//
compound: CCCCCCCCCC(C)=O
activity change, negative = cytotoxicity: inactive
//
compound: CC(C)N(c1ccccc1)C(C)C
activity change, negative = cytotoxicity: inactive
//
compound: Cc1ccc2c(c1)OCC(=O)CO2
activity change, negative = cytotoxicity: inactive
//
compound: CCCCCCCCCCCCCC
activity change, negative = cytotoxicity: inactive

====

- protocol: A CellTox Green Cytotoxicity Assay to monitor cytotoxicity in HEK293 cells - 40 hour (AID 1224871); further: nearly all actives have a fitted effect of over 45% in size
- measurement.context: CellTox Green fluorescence; series mostly up to 76.8 µM
Results filed as inconclusive are left out. The source made the active and inactive calls. Calls come from the whole dose curve; as a rule, active = well fitted activation curve with a large enough effect in the repeat runs; inconclusive = weak or mixed curves; inactive = flat fitted curve, though single readings scatter.

compound: CC(=O)/C=C/C1C(C)=CCC(C)C1(C)C (centres undefined)
cytotoxicity increase: inactive

compound: CCCCCOC(=O)CCC
cytotoxicity increase: inactive

compound: O=C(O)c1cc(Cl)cc([N+](=O)[O-])c1Cl
cytotoxicity increase: inactive

compound: COc1ccc2nc(SCc3ncc(C)c(OC)c3C)[nH]c2c1
cytotoxicity increase: inactive

compound: O=C(O)Cc1cn(-c2ccccc2)nc1-c1ccc(Cl)cc1
cytotoxicity increase: inactive

compound: CN1C(C)(C)CCCC1(C)C
cytotoxicity increase: inactive

compound: COc1cc(N)ccc1C
cytotoxicity increase: inactive

compound: CC(=O)Nc1ccc(S(=O)(=O)Nc2ccc([N+](=O)[O-])cc2)cc1
cytotoxicity increase: inactive

compound: OCCN(CCO)c1cccc(Cl)c1
cytotoxicity increase: inactive

compound: NNc1nnc(NN)c2ccccc12
cytotoxicity increase: inactive

compound: CC(C)NCC(O)COc1ccc(COCCOC(C)C)cc1 (centres undefined)
cytotoxicity increase: inactive

compound: CCCCNc1ccc(C(=O)OCCN(C)C)cc1
cytotoxicity increase: inactive

compound: CC(C(=O)O)c1ccc2c(c1)CC(=O)c1ccccc1S2 (centres undefined)
cytotoxicity increase: inactive

compound: Cc1cc(C(C)(C)C)c(O)c(C)c1CC1=NCCN1
cytotoxicity increase: inactive

compound: C=CCCCCCCCCCCCC
cytotoxicity increase: inactive

compound: O=C(O)Cc1ccc(Cl)cc1Cl
cytotoxicity increase: inactive

compound: O=C(CCN1CCN(CCO)CC1)N1c2ccccc2Sc2ccc(C(F)(F)F)cc21
cytotoxicity increase: inactive

compound: NS(=O)(=O)c1ccc(NC(=O)CCC(=O)O)cc1
cytotoxicity increase: inactive

compound: O=Cc1ccc(Cl)c(Cl)c1
cytotoxicity increase: inactive

compound: CC1=CCC(C(C)C)=CC1
cytotoxicity increase: inactive

compound: Nc1nnc(-c2cccc(Cl)c2Cl)c(N)n1
cytotoxicity increase: inactive

compound: COc1ccc(S(=O)(=O)N2c3ccc(Cl)cc3[C@@](O)(c3ccccc3Cl)[C@H]2C(=O)N2CCC[C@@H]2C(N)=O)cc1OC
cytotoxicity increase: inactive

compound: CC(C)NCC(O)COc1cccc2[nH]ccc12 (centres undefined)
cytotoxicity increase: inactive

compound: On1nnc2ccccc21
cytotoxicity increase: inactive

compound: COc1cc2c(cc1OC)C(=O)CC2
cytotoxicity increase: inactive

compound: CCCOC(OCCC)OCCC
cytotoxicity increase: inactive

compound: CCCCCCOC(=O)CC
cytotoxicity increase: inactive

compound: CCCCCCN
cytotoxicity increase: inactive

compound: O=C(O)C(=O)Cc1ccccc1
cytotoxicity increase: inactive
